The following are reported IC50 results, target or system aldose reductase (Rattus norvegicus, UniProt P07943).

Consider the following illustrative entries.
Inquiry: Item: O=C1CC2(C(=O)N1)C(=O)N1CCOc3c(Cl)ccc2c31 (stereo not shown) [Example 12] Test system: aldose reductase (Rattus norvegicus, UniProt P07943) Read-out: IC50 Value: ?
Reply text: 1500 nM

Inquiry: Item: O=C1CC2(C(=O)N1)C(=O)N1c3ccccc3Sc3cccc2c31 (stereo not shown) [Example 6] Test system: aldose reductase (Rattus norvegicus, UniProt P07943) Read-out: IC50 Value: ?
Reply text: 350 nM

Inquiry: Item: O=C1CC2(C(=O)N1)C(=O)N1CCOc3cccc2c31 (stereo not shown) [Example 5] Test system: aldose reductase (Rattus norvegicus, UniProt P07943) Read-out: IC50 Value: ?
Reply text: 5000 nM

// moving on: another record for IC50
Inquiry: Item: O=C1CC2(C(=O)N1)C(=O)N1CCCc3cc(Cl)cc2c31 (stereo not shown) [Example 2] Test system: aldose reductase (Rattus norvegicus, UniProt P07943) Read-out: IC50 Value: ?
Reply text: 400 nM
